Where these numbers come from: paper PMC6843521

biological target: OBP1 (Bemisia tabaci); test: Fluorescence competitive binding assay, recombinant OBP1 with 1-NPN probe
What IC50 was measured for each of the following?
Answers are plain numbers, in µM.

CC(=O)/C=C/C1=C(C)CCCC1(C)C [β-ionone] :: 7.16

Now look at this entry.
### Prompt Endpoint output: IC50 of CC(=O)/C=C/C1C(C)=CCCC1(C)C (stereo not drawn) [α-ionone] . Value?
### Response 40.1

====

target: UniProt:A0A1S6JPY9; experiment: Fluorescence competitive binding assay, recombinant OBP4 with bis-ANS probe
Reported Endpoint: pIC50
Numbers only, as −log10 of the molar value.

CC(=O)/C=C/C1=C(C)CCCC1(C)C :: 5.29

Now examine the next entry.
### Prompt # pIC50 lookup, item CC(=O)/C=C/C1C(C)=CCCC1(C)C (centres unmarked)
### Response 4.68

====

molecular target: OBP4 (Bemisia tabaci); test: Fluorescence competitive binding assay, recombinant OBP4 with bis-ANS probe; details: OBP4, bis-ANS probe; dash symbol of Table S2; read-out: IC50
Sequence (A0A1S6JPY9 entry or part of it): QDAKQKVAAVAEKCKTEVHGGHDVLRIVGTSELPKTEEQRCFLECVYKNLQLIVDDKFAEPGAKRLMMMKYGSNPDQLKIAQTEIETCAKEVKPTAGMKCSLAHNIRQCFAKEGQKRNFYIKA
pIC50: −log10 of the molar value.
Reported Endpoint: pIC50

### Prompt Query: pIC50; subject: CC(=O)CCC1=C(C)CCCC1(C)C [dihydro-β-ionone]
### Response < 4.30

====

target: OBP1 (Bemisia tabaci); test: Fluorescence competitive binding assay, recombinant OBP1 with 1-NPN probe
Reported Endpoint: pKd
Answers are plain numbers, as −log10 of the molar value.

### Prompt Please look up its pKd: c1ccc(Nc2cccc3ccccc23)cc1 [1-NPN, N-Phenyl-1-naphthylamine, reference compound]
### Response 5.47

====

target: UniProt A0A1S6JPY9; assay: Fluorescence competitive binding assay, recombinant OBP4 with bis-ANS probe; conditions: OBP4 2 μmol·L^−1, 50 mM Tris-HCl pH 7.4, excitation 295 nm; read-out: dissociation constant of fluorescent probe (Scatchard)
Reported Endpoint: Kd (nM)
Numbers only, in nM.

### Prompt Hi! What's the reported Kd for O=S(=O)(O)c1cccc2c(-c3ccc(Nc4ccccc4)c4c(S(=O)(=O)O)cccc34)ccc(Nc3ccccc3)c12 [bis-ANS, reference compound] on UniProt A0A1S6JPY9?
### Response 2680

====

target: OBP1 (Bemisia tabaci, UniProt A0A1S6JPY5); assay: Fluorescence competitive binding assay, recombinant OBP1 with 1-NPN probe; settings: OBP1, 1-NPN probe; dash symbol of Table S2; read-out: IC50
Sequence (A0A1S6JPY5 entry or part of it): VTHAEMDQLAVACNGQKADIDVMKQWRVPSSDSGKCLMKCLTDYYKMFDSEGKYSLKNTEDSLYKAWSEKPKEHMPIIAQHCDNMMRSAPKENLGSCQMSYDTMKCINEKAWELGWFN
Reported Endpoint: IC50

### Prompt What value of IC50 has been reported for the following compound? CC(=O)CCC1=C(C)CCCC1(C)C [dihydro-β-ionone]
### Response > 50 µM
